B1: PDZK1 (parent)
chain: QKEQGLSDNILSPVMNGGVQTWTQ

- Variants of: B1
- ASSAY_EXPLANATION: protein stability index of a GFP-peptide fusion (GPS, HEK-293T) (PSI 1-6); higher = more stable;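 further: lentivirally expressed fusions sorted by FACS into six bins by GFP to DsRed ratio, PSI derived from sequencing read proportions per bin multiplied by bin number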
- EXPERIMENTAL_CONTEXT: c terminus: a fixed tail appended
Quick rule for you: protein stability index at 3 or higher means 1.0, lower means 0.0.

Worked examples follow.
N9E | 1.0
V19P | 1.0
T21W | 0.0
Q4W | 0.0

Reported protein stability index reaches at least 3 for `T23D` ?
1.0

Reported protein stability index reaches at least 3 for `T21R` ?
1.0

Reported protein stability index reaches at least 3 for `S12N` ?
1.0

Reported protein stability index reaches at least 3 for `M15H` ?
0.0

Reported protein stability index reaches at least 3 for `W22I` ?
1.0

These entries and their values trace back to the supplement of paper PMC10567573.
